Target: CYP124 (Mycobacterium tuberculosis)
Sequence (P9WPP3 1-428): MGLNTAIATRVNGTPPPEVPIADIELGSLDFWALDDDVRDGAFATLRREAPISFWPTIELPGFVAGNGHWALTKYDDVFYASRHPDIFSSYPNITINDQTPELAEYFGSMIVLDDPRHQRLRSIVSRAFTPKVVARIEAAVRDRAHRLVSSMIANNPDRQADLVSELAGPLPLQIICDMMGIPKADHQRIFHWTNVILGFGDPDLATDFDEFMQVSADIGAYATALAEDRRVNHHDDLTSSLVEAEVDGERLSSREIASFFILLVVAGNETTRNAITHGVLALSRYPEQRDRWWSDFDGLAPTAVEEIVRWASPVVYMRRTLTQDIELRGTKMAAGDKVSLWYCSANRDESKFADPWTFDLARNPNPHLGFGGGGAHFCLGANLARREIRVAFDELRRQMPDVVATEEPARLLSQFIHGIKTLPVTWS
Test: biochemical
OBSERVABLE: Kd (µM)
Reply with just the number (in µM).

QUERY: For the compound `Cc1cc(CCC(C)C)ccc1NC=NO` , what Kd is on record?
RESULT: 1.93

QUERY: For the compound `CC(C)CCC[C@@H](C)[C@H]1CC[C@H]2[C@@H]3[C@@H](O)C=C4C[C@@H](O)CC[C@]4(C)[C@H]3CC[C@]12C` , what Kd is on record?
RESULT: 11.1

QUERY: For the compound `CC(C)CCC[C@@H](C)[C@H]1CC[C@H]2[C@@H]3C(=O)C=C4C[C@@H](O)CC[C@]4(C)[C@H]3CC[C@]12C` , what Kd is on record?
RESULT: 6.5

QUERY: For the compound `CC(C)CCC[C@@H](C)[C@H]1CC[C@H]2[C@@H]3CCC4=CC(=O)CC[C@]4(C)[C@H]3CC[C@]12C` , what Kd is on record?
RESULT: 3.4

QUERY: For the compound `CCOC(=O)CCCCCCn1ccnc1` , what Kd is on record?
RESULT: 1.45

QUERY: For the compound `O=C(O)CCCCCCCn1ccnc1` , what Kd is on record?
RESULT: 3.1

###

Biological target: CYP125 (Mycobacterium tuberculosis)
Sequence (P9WPP1 1-433): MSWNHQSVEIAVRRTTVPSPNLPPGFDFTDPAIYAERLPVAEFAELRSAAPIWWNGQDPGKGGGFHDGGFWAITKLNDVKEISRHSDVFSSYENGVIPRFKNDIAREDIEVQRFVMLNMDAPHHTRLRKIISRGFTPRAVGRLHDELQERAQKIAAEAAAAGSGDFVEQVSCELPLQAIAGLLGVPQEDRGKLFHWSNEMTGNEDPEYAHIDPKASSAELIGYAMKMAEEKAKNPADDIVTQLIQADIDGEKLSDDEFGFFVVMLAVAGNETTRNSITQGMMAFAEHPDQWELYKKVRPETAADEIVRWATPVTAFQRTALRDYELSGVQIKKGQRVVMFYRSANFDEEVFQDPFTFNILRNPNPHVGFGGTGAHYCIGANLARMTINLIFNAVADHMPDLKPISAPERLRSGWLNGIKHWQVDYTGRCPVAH
Assay: biochemical
Field: pKd. Provide a value for each of the compounds that follow.
// pKd here means minus log10 of the molar concentration (mol/L)

QUERY: For the compound `Cc1cc(CCC(C)C)ccc1NC=NO` , what pKd is on record?
RESULT: 4.80

QUERY: For the compound `CC(C)CCC[C@@H](C)[C@H]1CC[C@H]2[C@@H]3C(=O)C=C4C[C@@H](O)CC[C@]4(C)[C@H]3CC[C@]12C` , what pKd is on record?
RESULT: 4.91

QUERY: For the compound `CCOC(=O)CCCCCCn1ccnc1` , what pKd is on record?
RESULT: 4.51

QUERY: For the compound `CC(C)CCC[C@@H](C)[C@H]1CC[C@H]2[C@@H]3[C@@H](O)C=C4C[C@@H](O)CC[C@]4(C)[C@H]3CC[C@]12C` , what pKd is on record?
RESULT: 4.89

QUERY: For the compound `CC(C)CCC[C@@H](C)[C@H]1CC[C@H]2[C@@H]3CCC4=CC(=O)CC[C@]4(C)[C@H]3CC[C@]12C` , what pKd is on record?
RESULT: 4.97

QUERY: For the compound `O=C(O)CCCCCCCn1ccnc1` , what pKd is on record?
RESULT: 5.79
